Give measured Kd for each item. Keep answers brief.
biological target: fTW, fluorescently labelled H14 foldamer TW; test: fluorescence polarisation; direct FP: S100 protein diluted in 50 nM labeled foldamer, 20 mM HEPES pH 7.5, 150 mM NaCl, 1 mM CaCl2, 0.5 mM TCEP, 0.01% Tween20; quadratic fit (ProFit); detection threshold Kd 1 mM
One number for each entry, in µM.

S100Z (natural protein) MPTQLEMAMDTMIRIFHRYSGKERKRFKLSKGELKLLLQRELTEFLSCQKETQLVDKIVQDLDANKDNEVDFNEFVVMVAALTVACNDYFVEQLKKKGK ... 520

Look up Kd: S100A5 (natural protein) METPLEKALTTMVTTFHKYSGREGSKLTLSRKELKELIKKELCLGEMKESSIDDLMKSLDKNSDQEIDFKEYSVFLTMLCMAYNDFFLEDNK
62
